# System Under Test: human μ-opiate receptor (Homo sapiens, UniProt P35372)
# Sequence (P35372 whole entry): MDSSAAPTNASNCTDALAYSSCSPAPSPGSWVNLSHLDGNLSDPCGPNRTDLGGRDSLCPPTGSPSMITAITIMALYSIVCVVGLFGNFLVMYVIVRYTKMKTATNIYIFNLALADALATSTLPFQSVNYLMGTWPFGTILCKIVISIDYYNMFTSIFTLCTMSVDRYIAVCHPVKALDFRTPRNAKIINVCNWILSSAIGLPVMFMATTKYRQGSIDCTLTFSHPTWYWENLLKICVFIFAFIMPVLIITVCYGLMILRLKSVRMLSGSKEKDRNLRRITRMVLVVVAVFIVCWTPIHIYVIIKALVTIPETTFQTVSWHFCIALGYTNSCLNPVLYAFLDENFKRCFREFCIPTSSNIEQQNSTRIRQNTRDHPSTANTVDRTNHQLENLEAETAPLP
# Assay Protocol: Affinity for the human μ-opiate receptor ([3H]-naloxone displacement, SPA, CHO-K1 membrane preparation)
# Assay type: binding
# Test Parameters: read-out: μ-Opioid receptor, % inhibition [1 μM]
Answer each item with its documented inhibition at 1 µM.
Give bare numbers, in %.

Recorded inhibition at 1 µM, per entry:
In [3]: df
Out[3]:
                                   molecule                         system_under_test        test_readout  unit_abbrev  observed_result
0  CN(C)C(c1ccccc1)C1CCC(CCNC(=O)c2ccccc2F)CC1 (stereo not shown)  human μ-opiate receptor (Homo sapiens, UniProt P35372)  inhibition at 1 µM            %               88
1  CCC(C(=O)NCCC1CCC(C(c2cccs2)N(C)C)CC1)c1ccccc1 (stereo not shown)  human μ-opiate receptor (Homo sapiens, UniProt P35372)  inhibition at 1 µM            %               96

Answer for every listed entry: what is its inhibition at 1 µM? The entries follow.
1. CN(C)C(c1cccc(F)c1)C1CCC(CNC(=O)c2csc3ccccc23)CC1 (stereo not shown)
2. CCC(C(=O)NC1CCC(C(c2cccc(F)c2)N(C)C)CC1)c1ccccc1 (stereo not shown)

1. 97
2. 75

List the reported inhibition at 1 µM of each molecule below.
1. CN(C)C(c1ccc(F)cc1)C1CCC(CCNC(=O)c2cccc(Cl)c2)CC1 (single isomer, unassigned)
2. CN(C)C(c1cccc(F)c1)C1CCC(NC(=O)c2cc(Cl)cc(Cl)c2)CC1 (stereo not shown)
3. CN(C)C(c1ccc(F)cc1)C1CCC(CNC(=O)CC(C)(C)C)CC1 (stereo not shown)
4. COc1c(C(=O)NCC2CCC(C(c3ccc(F)cc3)N(C)C)CC2)csc1Cl (stereo not shown)
5. CN(C)C(c1ccc(F)cc1)C1CCC(CNC(=O)C2(c3ccc(Cl)cc3)CCCC2)CC1 (stereo not shown)
6. CCSc1ncccc1C(=O)NC1CCC(C(c2cccs2)N(C)C)CC1 (stereo not shown)

1: 83; 2: 82; 3: 95; 4: 84; 5: 84; 6: 91

I need inhibition at 1 µM for every entry listed below, if you could help.
1. Cc1ccc(C(=O)NC2CCC(C(c3ccccc3)N(C)C)CC2)cc1 (stereo not shown)
2. CN(C)C(c1cccc(F)c1)C1CCC(CCNC(=O)c2ccccc2F)CC1 (stereo not shown)
3. Cc1cccc(C(=O)NCCC2CCC(C(c3cccs3)N(C)C)CC2)c1 (stereo not shown)

1: 82; 2: 99; 3: 101
